target: human GLP-1 receptor (human) (UniProt P43220)
Sequence (P43220 24-463): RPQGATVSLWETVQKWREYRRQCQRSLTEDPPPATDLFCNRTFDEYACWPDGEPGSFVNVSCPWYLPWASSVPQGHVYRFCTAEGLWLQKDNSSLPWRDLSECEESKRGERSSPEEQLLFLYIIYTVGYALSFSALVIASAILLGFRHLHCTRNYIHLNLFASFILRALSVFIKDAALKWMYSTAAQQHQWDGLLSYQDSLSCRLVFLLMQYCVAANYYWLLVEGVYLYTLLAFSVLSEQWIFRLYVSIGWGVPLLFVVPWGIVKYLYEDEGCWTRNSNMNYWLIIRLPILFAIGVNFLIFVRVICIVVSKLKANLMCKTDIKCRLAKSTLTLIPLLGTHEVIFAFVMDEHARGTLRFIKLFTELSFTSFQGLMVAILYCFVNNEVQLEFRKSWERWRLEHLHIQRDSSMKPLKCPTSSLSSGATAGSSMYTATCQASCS
No end group written: not given here.
ASSAY ENDPOINT: EC50 GLP1R (nM); cAMP assay on CHO-JumpIn cells with human GLP1R

a. HSQGTFFSDYSKYLDSRRAQDFVQWLLET-NH2 [Peptide 34]
b. HSQGTFTSDYSKYLDSRRAQDFVQWLLDS-NH2 [Peptide 35]
[in] # min-compare on EC50 GLP1R (nM); cAMP assay on CHO-JumpIn cells with human GLP1R between a and b Your answer should be the label of the entry you select.
[out] b

meta.source: paper PMC5766609
